Measured pIC50 of individual entries
System: SKOV-3
Experiment: Cytotoxicity test (MTT, 72 h)
Conditions: Homo sapiens, SK-OV-3, 72 h, read-out: 50% Inhibiting Concentration value (IC50)
# log scale: pIC50 equals minus log10 of the concentration in mol/L

Use these answered entries as a reference point.
[
  {
    "Structure Notation": "CCc1c2c(nc3ccc(OC(=O)NCCCOCc4cn([C@H]5O[C@@H](CO)[C@H](O)[C@@H](O)[C@@H]5O)nn4)cc13)-c1cc3c(c(=O)n1C2)COC(=O)[C@]3(O)CC",
    "Target": "SKOV-3",
    "pIC50": 4.95
  },
  {
    "Structure Notation": "CCc1c2c(nc3ccc(OC(=O)OCCOCCOCCOCCOCc4cn([C@H]5O[C@@H](CO)[C@H](O)[C@@H](O)[C@@H]5O)nn4)cc13)-c1cc3c(c(=O)n1C2)COC(=O)[C@]3(O)CC",
    "Target": "SKOV-3",
    "pIC50": 6.68
  }
]

Q: # input molecule: `CCc1c2c(nc3ccc(OC(=O)NCCCCCOCc4cn([C@H]5O[C@@H](CO)[C@H](O)[C@@H](O)[C@@H]5O)nn4)cc13)-c1cc3c(c(=O)n1C2)COC(=O)[C@]3(O)CC` ; wanted: its pIC50
A: 5.05

Q: I am curious: what pIC50 value has been reported for `CCc1c2c(nc3ccc(OC(=O)OCCOCCOCc4cn([C@H]5O[C@@H](CO)[C@H](O)[C@@H](O)[C@@H]5O)nn4)cc13)-c1cc3c(c(=O)n1C2)COC(=O)[C@]3(O)CC` ?
A: 5.48

Q: Returns the measured pIC50 for the input molecule. Input: `CCc1c2c(nc3ccc(OC(=O)OCCOCc4cn([C@H]5O[C@@H](CO)[C@H](O)[C@@H](O)[C@@H]5O)nn4)cc13)-c1cc3c(c(=O)n1C2)COC(=O)[C@]3(O)CC`
A: 5.58
